Species: Rattus norvegicus
method_notes: DrugMatrix - Regimen: Daily Repeat
Format: toxicity, organism-based, Sprague-Dawley
Design: regimen Daily Repeat, gender Male, age 6-8 weeks
run_parameters: in vivo, po, 0 mg/kg, 120 h, tissue Blood, route oral GAVAGE, dose level Control, time 5 day, vehicle 100 % WATER
readout_kind: HEMATOCRIT (%)
Numbers only, in %.

// known answers, use as guide
c1ccc([C@H]2CN3CCSC3=N2)cc1 [LEVAMISOLE] :: 36.62
CNNCc1ccc(C(=O)NC(C)C)cc1 [PROCARBAZINE] :: 34.63

Return reported HEMATOCRIT values for all items listed beneath this line.
1. C[C@H]1c2cccc(O)c2C(=O)C2=C(O)[C@]3(O)C(=O)C(C(N)=O)=C(O)[C@@H](N(C)C)[C@@H]3[C@@H](O)[C@@H]21.O [DOXYCYCLINE]
2. Cn1cc[nH]c1=S [METHIMAZOLE]
3. COc1cc2nc(N3CCN(C(=O)C4COc5ccccc5O4)CC3)nc(N)c2cc1OC (configuration not stated) [DOXAZOSIN]
4. Clc1cccc(Cl)c1N=C1NCCN1 [CLONIDINE]

OUTPUT:
1: 36.48; 2: 34.72; 3: 36.48; 4: 35.55

INPUT: Item N[C@@H](Cc1ccc(O)c(O)c1)C(=O)O [LEVODOPA] has what recorded HEMATOCRIT?
OUTPUT: 36.48

###

For each entry below, report its HEMOGLOBIN value.
Species: Rattus norvegicus
method_notes: DrugMatrix - Regimen: Daily Repeat
Format: toxicity, organism-based, Sprague-Dawley
Parameters: regimen Daily Repeat, gender Male, age 6-8 weeks
run_parameters: in vivo, po, 0 mg/kg, 120 h, tissue Blood, route oral GAVAGE, dose level Control, time 5 day, vehicle 100 % WATER
Answers are plain numbers, in G/DL.

// known answers, use as guide
N[C@@H](Cc1ccc(O)c(O)c1)C(=O)O :: 14.03
Nc1c2c(nc3ccccc13)CCCC2 :: 14.38
COc1cc2nc(N3CCN(C(=O)C4COc5ccccc5O4)CC3)nc(N)c2cc1OC (stereo not drawn) :: 14.03
C[C@](N)(Cc1ccc(O)c(O)c1)C(=O)O :: 13.72
C=CCC1(C(C)CCC)C(=O)NC(=O)NC1=O (stereo not drawn) :: 13.17
C[C@H]1c2cccc(O)c2C(=O)C2=C(O)[C@]3(O)C(=O)C(C(N)=O)=C(O)[C@@H](N(C)C)[C@@H]3[C@@H](O)[C@@H]21.O :: 14.03
CC(O)CO (stereo not drawn) :: 14.4

Kindly consider the entry below.
INPUT: Item C[C@H](CS)C(=O)N1CCC[C@H]1C(=O)O has what recorded HEMOGLOBIN?
OUTPUT: 14.22

###

Species: Rattus norvegicus
method_notes: DrugMatrix - Regimen: Daily Repeat
Assay type: toxicity, organism-based, Sprague-Dawley
Parameters: regimen Daily Repeat, gender Male, age 6-8 weeks
run_parameters: in vivo, po, 0 mg/kg, 72 h, tissue Plasma, route oral GAVAGE, dose level Control, time 3 day, […]
readout_kind: CREATINE PHOSPHOKINASE (u/L)
One number for each entry, in u/L.

Cc1noc(NS(=O)(=O)c2ccc(N)cc2)c1C [SULFISOXAZOLE] :: 292.5
CN(C)c1nc(N(C)C)nc(N(C)C)n1 [ALTRETAMINE] :: 200
O=c1oc2ccccc2c(O)c1Cc1c(O)c2ccccc2oc1=O [DICUMAROL] :: 367.67
CC(C)(Oc1ccc(Cl)cc1)C(=O)O [CLOFIBRIC ACID] :: 729.17
OC(Cn1cncn1)(Cn1cncn1)c1ccc(F)cc1F [FLUCONAZOLE] :: 659.17

Return reported CREATINE PHOSPHOKINASE values for all items listed beneath this line.
1. CCOC(=O)C1=C(COCCN)NC(C)=C(C(=O)OC)C1c1ccccc1Cl (stereo not drawn) [AMLODIPINE]
2. C[C@@H]1CN(c2c(F)c(N)c3c(=O)c(C(=O)O)cn(C4CC4)c3c2F)C[C@H](C)N1 [SPARFLOXACIN]
3. CC(C)C(=O)Nc1ccc([N+](=O)[O-])c(C(F)(F)F)c1 [FLUTAMIDE]

OUTPUT:
1. 200
2. 200
3. 284.33
